Biological target: T1, 4H908-bN
T1 chain: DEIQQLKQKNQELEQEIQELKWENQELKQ
Test: two-hybrid library CCNG1;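 also: natural log of median RNA to DNA barcode read ratio; higher means stronger binding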
QUANTITY: interaction score

1. DEIQQLKQENQELEQKIQELKWKNQELEQ [4H687-bN]
2. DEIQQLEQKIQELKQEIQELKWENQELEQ [4H331-bN]
[ask] Parameter metric = interaction score. Return the lower-valued option from 1 and 2 . Refer to your chosen entry by its label in the reply.
[reply] 2
(2: -1.35, 1: -0.555)
